# tested target: thromboxane A2 (TxA2) receptor (Cavia porcellus)
# Construct: to obtain washed platelets; from tissue; host or cells: washed platelets of male Hartley guinea pigs
# Sequence (A0A286Y4I8 1-347): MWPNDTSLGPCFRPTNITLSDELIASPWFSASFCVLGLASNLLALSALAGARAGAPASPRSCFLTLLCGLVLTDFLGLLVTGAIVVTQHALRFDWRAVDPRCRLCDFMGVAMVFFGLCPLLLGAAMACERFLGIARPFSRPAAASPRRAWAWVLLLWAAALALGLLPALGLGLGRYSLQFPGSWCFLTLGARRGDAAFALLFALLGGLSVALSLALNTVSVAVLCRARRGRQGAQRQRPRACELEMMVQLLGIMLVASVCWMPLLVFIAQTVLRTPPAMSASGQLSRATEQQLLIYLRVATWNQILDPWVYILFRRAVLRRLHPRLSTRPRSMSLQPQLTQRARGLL
# assay details: TxA2 antagonist action by binding assay
# measurement parameters: washed guinea pig platelets, 1 nM [3H]-SQ29,548, 45 minutes at 25° C.
endpoint label: log10 of IC50 (log10 of the value in µM)

compound: O=C(O)Cc1ccc(NC(=O)C(COc2ccc(Cl)cc2)NS(=O)(=O)c2ccc(F)cc2)cc1 (racemic) [Example 137]
endpoint label: log10 of IC50
quantitative readout: -1.00
//
compound: O=C(O)Cc1ccc(NC(=O)C(COc2ccc(Cl)cc2)NS(=O)(=O)c2ccc(Br)cc2)cc1 (racemic) [Example 143]
endpoint label: log10 of IC50
quantitative readout: -1.43
//
compound: O=C(O)Cc1ccc(NC(=O)C(COc2ccccc2)NS(=O)(=O)c2ccc(Br)cc2)cc1 (racemic) [Example 142]
endpoint label: log10 of IC50
quantitative readout: -1.62
//
compound: O=C(O)Cc1ccc(NC(=O)C(CC2CCCCC2)NS(=O)(=O)c2ccc(Cl)cc2)cc1 (racemic) [Example 260]
endpoint label: log10 of IC50
quantitative readout: -1.22
//
compound: CCSCCC(NS(=O)(=O)c1ccc(Cl)cc1)C(=O)Nc1ccc(CCC(=O)O)cc1 (racemic) [Example 244]
endpoint label: log10 of IC50
quantitative readout: -0.54
//
compound: O=C(O)Cc1ccc(NC(=O)C(COC2CCCCO2)NS(=O)(=O)c2ccc(Cl)cc2)cc1 (racemic) [Example 41]
endpoint label: log10 of IC50
quantitative readout: -1.24
//
compound: O=C(O)Cc1ccc(NC(=O)[C@@H](Cc2ccccc2)NS(=O)(=O)c2ccc(Br)cc2)cc1 [Example 253]
endpoint label: log10 of IC50
quantitative readout: 0.11

* * *

# tested target: thromboxane A2 (TxA2) receptor (Cavia porcellus)
# Construct: to obtain washed platelets; from tissue; host or cells: washed platelets of male Hartley guinea pigs
# assay details: TxA2 antagonist action by binding assay
# measurement parameters: washed guinea pig platelets, 1 nM [3H]-SQ29,548, 45 minutes at 25° C.
Counter-ions that a name gives are not always drawn.

compound: O=C(O)CCc1ccc(NC(=O)C(COC2CCCCO2)NS(=O)(=O)c2ccc(Cl)cc2)cc1 (racemic)
tested target: thromboxane A2 (TxA2) receptor (Cavia porcellus)
IC50 [µM]: 0.088
//
compound: O=C(O)Cc1ccc(NC(=O)C(Cn2ccnc2)NS(=O)(=O)c2ccc(Cl)cc2)cc1 (racemic) [Example 94, hydrochloride]
tested target: thromboxane A2 (TxA2) receptor (Cavia porcellus)
IC50 [µM]: 0.86
//
compound: CCCC[C@H](NS(=O)(=O)c1ccc(Br)cc1)C(=O)Nc1ccc(CC(=O)O)cc1
tested target: thromboxane A2 (TxA2) receptor (Cavia porcellus)
IC50 [µM]: 0.045
//
compound: CSCC[C@H](NS(=O)(=O)c1ccc(Cl)cc1)C(=O)Nc1ccc(CCC(=O)O)cc1
tested target: thromboxane A2 (TxA2) receptor (Cavia porcellus)
IC50 [µM]: 0.15
//
compound: CCSCCC(NS(=O)(=O)c1ccc(Cl)cc1)C(=O)Nc1ccc(CC(=O)O)cc1 (racemic)
tested target: thromboxane A2 (TxA2) receptor (Cavia porcellus)
IC50 [µM]: 0.032
//
compound: O=C(O)Cc1ccc(NC(=O)[C@H](Cc2ccccc2)NS(=O)(=O)c2ccc(Br)cc2)cc1
tested target: thromboxane A2 (TxA2) receptor (Cavia porcellus)
IC50 [µM]: 0.0071
//
compound: O=C(O)CCc1cccc(NC(=O)C(COC2CCCCO2)NS(=O)(=O)c2ccc(Cl)cc2)c1 (racemic)
tested target: thromboxane A2 (TxA2) receptor (Cavia porcellus)
IC50 [µM]: 0.11

These measurements were taken from patent US5650428A.
